assay: qHTS RealTime-Glo MT Cell Viability Assay in HepG2 cells - 8 hour (AID 1224873); details: RealTime-Glo luminescence; series mostly up to 76.8 µM; further: nearly all actives have a fitted effect of over 55% in size
Records with an inconclusive call do not appear. Active and inactive are the calls of the source. The call rests on the fitted dose curve; in most records, active means well fitted cell-killing curve with a large enough effect in the repeat runs; inconclusive means weak or mixed curves; inactive means flat fitted curve, though single readings scatter.
Outcomes: True (active), False (inactive)

| MOLECULE | DISCRETE_LABEL |
| --- | --- |
| Oc1ccc(-c2ccc(O)cc2)cc1 | False |
| CC(C)=C1CC[C@@H](C)CC1=O | False |
| Cc1cccc(C)n1 | False |
| OCCN1CN(CCO)CN(CCO)C1 | False |
| OCCC(O)CO (stereo unspecified) | False |
| COc1ccc(-n2nc(CCC(=O)N(C)O)cc2-c2ccc(Cl)cc2)cc1 | False |
| Cc1occc1SSc1ccoc1C | False |
| CC(CN(C)C)CN1c2ccccc2CCc2ccccc21 (stereo unspecified) | False |
| ClC/C=C\CCl | False |
| CC(=O)OC1CCCCC1 | False |
| COc1cccc(OC)c1O | False |
| Cc1cccc(Br)c1 | False |
| O=C(Oc1ccccc1)c1cccc(C(=O)Oc2ccccc2)c1 | False |
| C/C=C/C=N/NC(=O)c1ccncc1 | False |
| CCOC(OCC)C(=O)c1ccccc1 | False |
| Cc1ccc(-n2[nH]c(C)c(N=Nc3cccc(-c4cccc(C(=O)O)c4)c3O)c2=O)cc1C | False |
| NCCCCCCNCCCCCCN | False |
| CCOCOCC | False |
| Cc1c(-c2ccc(O)cc2)n(Cc2ccc(OCCN3CCCCCC3)cc2)c2ccc(O)cc12 | True |
| CCCC(O)C(O)CO (stereo unspecified) | False |
| CCOC(=O)CN | False |
| CNC(=S)NN | False |
| CC(C)C(=O)OCc1ccccc1 | False |
| O[C@@H](c1cc(C(F)(F)F)nc2c(C(F)(F)F)cccc12)[C@H]1CCCCN1 | True |
| Cc1c(C)n(Cc2ccccc2)c2ccc(C(=O)OCCN(C)C)cc12 | False |
| CC(C)=CCCC(C)O (stereo unspecified) | False |
| CC(C)(c1cc(Br)c(O)c(Br)c1)c1cc(Br)c(O)c(Br)c1 | False |
| O=Cc1ccc(F)cc1 | False |
| Cc1ccc2ccc3cccc4ccc1c2c34 | False |
| COc1ccccc1C=O | False |
| [O]=[Zr] | False |
| CC(=O)C=O | False |
| CC(=O)Oc1ccc(C2(c3ccc(OC(C)=O)cc3)Oc3ccccc3NC2=O)cc1 | False |
| CCCCOC(=O)C(C)CC (stereo unspecified) | False |
| Clc1ccc(C(c2ccccc2Cl)C(Cl)Cl)cc1 (stereo unspecified) | False |
| CCCSS/C(CCO)=C(\C)N(C=O)Cc1cnc(C)nc1N | False |
| COc1nccnc1CC(C)C | False |
| COc1ccc2sc(C(=O)Nc3nnn[nH]3)c(OC(C)C)c2c1 | False |
| C=C[C@](C)(O)CC[C@@H]1[C@@]2(C)CCCC(C)(C)[C@@H]2CC[C@@]1(C)O | True |
| CCCCCCCCCCCCCCNCCO | True |
| C/C=C/C(=O)C1=C(C)CCCC1(C)C | False |
| C=CC(C)C#N (stereo unspecified) | False |
| CCc1c(Br)c(Br)c(Br)c(Br)c1Br | False |
| OCCCCl | False |
| CCCCCCCCCCCCCC[n+]1ccccc1 | True |
| Clc1cccnc1 | False |
| CCCCCCC(C)OC(=O)COc1nc(F)c(Cl)c(N)c1Cl (stereo unspecified) | False |
| O=S(=O)(O)CCCN1CCOCC1 | False |
| CC1=C(/C=C/C(C)=C/C=C/C(C)=C\C=O)C(C)(C)CCC1 | False |
| CCCCCCCCC(C)=O | False |
| O=C1C=CC(=O)N1c1ccccc1 | True |
| CC(=O)Oc1ccc(C2(c3ccc(OC(C)=O)cc3)C(=O)Nc3ccccc32)cc1 | False |
| O=C(c1ccccc1)c1cc(Cl)ccc1O | False |
| Oc1c(Br)cc(Br)c2cccnc12 | False |
| CN1[C@@H]2CC[C@@H]1CC(OC(=O)C(CO)c1ccccc1)C2 (stereo partly specified) | False |
| CCCOc1sc(C(=O)N2CCC(c3cc(CN)ccc3F)CC2)c(C)c1Br | True |
| O=C1OC(=O)c2ccc3c4c(ccc1c24)C(=O)OC3=O | False |
| CCCCCCCC(OC)OC | False |
| O=CC1CC1 | False |
| CC(=O)Nc1ccc(O)cc1 | False |
| Cc1cc(C)c(C=O)c(C)c1 | False |
